All figures here come from PubChem BioAssay.

Catalogue of z-score values
# assay.notes: growth modulation of vineyard yeast isolate – strain RM11-1a, OD600, basal, 24 h, primary screen (AID 1177);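 note: cultures grown under basal conditions with no added stressor; test concentration not given here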
# test.context: S. cerevisiae RM11-1a growth, OD600, 24 h; higher = more signal, called active from +8 up or from −8 down
Note: the reply should be a number with no unit written.

Some solved entries appear below for comparison.
I would be grateful if you could share the reported z-score for O=C1NC(=O)C2C1C=CC(C(O)c1ccc(I)cc1)N2Nc1ccccn1 (configuration not stated) .
0.275

Moving on to "COCCOC(=O)N1C(=O)[C@@]2(c3cc(C#Cc4ccc(OC)cc4)ccc31)[C@H](c1ccc(O)cc1)N1[C@H](c3ccccc3)[C@H](c3ccccc3)OC(=O)[C@H]1[C@@H]2C(=O)Nc1nc2ccccc2s1"
0.363

Moving on to "COC(=O)[C@]1(Cc2ccccc2)N=C(c2ccc(OCCCO)cc2)O[C@@H]1c1ccccc1N=[N+]=[N-]"
0.285

Moving on to "CC(C)(C)OC(=O)CC[C@]1(C(N)=O)N=C(c2ccc(OCCCO)cc2)O[C@H]1c1ccccc1"
0.663

---
I would be grateful if you could share the reported z-score for "COc1ccc([Si](C)(C)[C@@H]2[C@@H](CCn3cc(CCO)nn3)O[C@]3(C(=O)N(Cc4cccc(N5C(=O)c6cccc7cccc5c67)c4)c4ccccc43)[C@H]2C)cc1" .
1.69

Moving on to "COc1ccc(NC(=O)O[C@H]2[C@H](OC(=O)c3cc4ccccc4[nH]3)[C@@H](OC(=O)c3cc4ccccc4[nH]3)[C@@H](OC)O[C@@H]2CO)cc1"
-0.575

Moving on to "CC(C)[Si](C#CCCCC#N)(Oc1ccccc1Br)C(C)C"
-0.218

----------
# System: Fibrinogen (Alexa647-labelled)
# assay.notes: Alexa647-fibrinogen binding to printed small molecules – biochemical, small-molecule microarray, 635/667 nm fluorescence, artefact control for SMM control-protein annotation, profiling panel (AID 1131);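 note: z-score merges 667 nm fluorescence with per-spot signal-to-noise over triplicate slides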
# test.context: fibrinogen-A647 binding fluorescence, higher = more signal
Just so you know, the groups by composite z-score go like this: low band: < 0.2; middle band: ≥ 0.2 and < 0.9; high band: ≥ 0.9

Known results for molecules:
Input "CCCC[C@H]1C[C@@H]1[C@@H]1N(P(=O)(c2ccccc2)c2ccccc2)C[C@@](O)(c2ccccc2)CC12CC2" ; output its category
high band

Moving on to CCCCCN1CC=CC23O[C@@H]4C=CCOC(=O)[C@@H]4[C@H]2C(=O)N(C(C)CO)[C@@H]3C1=O (stereo partly specified)
low band

Moving on to "CC[C@@H]1C=C(C(=O)O)[C@H](c2cccc3ccccc23)N1S(=O)(=O)c1ccc(C)cc1"
low band

Moving on to "C=CC[C@]1(C(=O)N2CCOCC2)N=C(c2ccc(OCCCO)cc2)O[C@H]1c1ccccc1N=[N+]=[N-]"
high band

Moving on to "[N-]=[N+]=NCc1ccccc1[C@H]1OC(c2ccc(OCCCO)cc2)=N[C@@]1(Cc1ccccc1)C(=O)N1CCCCC1"
high band

---
Input O=C1C2C=CC(C(O)c3ccc4c(c3)OCO4)N(Nc3ccc([N+](=O)[O-])cc3)C2C(=O)N1c1ccccc1 (stereo unspecified) ; output its category
middle band

Moving on to "Cc1ccc(S[C@]2(C(=O)O)CC(=O)N(C(C)C)[C@@H]2c2ccc(CO)cc2)cc1"
low band

Moving on to O=C1C2C=CC(C(O)COCc3ccccc3)N(Nc3ccc([N+](=O)[O-])cc3)C2C(=O)N1c1ccccc1 (stereo unspecified)
high band

Moving on to "CCOC(=O)C[C@H]1[C@H](OC(=O)c2ccc(C(=O)c3ccccc3)cc2)[C@@H](NC(=O)Cc2ccc(OC)cc2)c2cc(OCCCO)ccc2N1C(=O)c1ccc2ccccc2n1"
middle band

Moving on to "C[N+](C)(C)CCCC[C@@H]1NC(=O)[C@@H]2C[C@H](C(=O)NCCCCCCNC(=O)CS)[C@H](c3ccc(O)cc3)N2C1=O"
low band

Moving on to O=C1NC(=O)C2C1C=CC(C(O)c1ccc(I)cc1)N2Nc1ccccn1 (stereo unspecified)
middle band

Moving on to "CCOC(=O)C1=C[C@@H](C(C)C)N(S(=O)(=O)c2ccc(C)cc2)[C@H]1c1ccccc1F"
high band

Moving on to "C#CCNCc1ccccc1"
low band

Moving on to "COC(=O)c1c(CC[C@@H](CO)NC(=O)N[C@@H](Cc2ccccc2)Cn2cc(-c3ccccn3)nn2)oc(C(=O)N2CCOCC2)c1C(=O)OC"
low band

Moving on to "COC(=O)c1c(CC[C@@H](CO)NC(=O)NCCc2c[nH]c3ccccc23)oc(C(=O)Cc2ccccc2)c1C(=O)OC"
middle band
